From: patent US7998940B2

Target: human vWF A1 domain (SEQ ID NO 5) (Homo sapiens, UniProt P04275, T1381A)
Sequence (P04275 with tags, fused parts or gaps T1381A): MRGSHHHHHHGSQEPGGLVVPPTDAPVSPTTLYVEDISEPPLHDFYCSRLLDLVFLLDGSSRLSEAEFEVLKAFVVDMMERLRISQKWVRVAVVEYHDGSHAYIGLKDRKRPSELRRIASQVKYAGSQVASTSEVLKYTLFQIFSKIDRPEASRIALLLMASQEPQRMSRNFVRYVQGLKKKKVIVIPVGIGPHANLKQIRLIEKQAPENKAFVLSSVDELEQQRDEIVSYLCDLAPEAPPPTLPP
Test: 3-point dot blot screen, human vWF A1 domain
Assay type: binding
Conditions: rRfY aptamers; 100 nM human vWF A1 domain; ratio of fraction bound with target to fraction bound without target
Oligonucleotides are written 5' to 3', each unit as a sugar letter and its base; * is a phosphorothioate linkage, no mark a phosphodiester; rarer units and linkages stand in square brackets, end groups in braces. Plain capitals give the bases only. r = 2'-OH (RNA); f = 2'-fluoro
# Screen- Human/No Protein values compiled below

[
  {
    "molecule": "AMX198.E11: rRfY aptamer clone (nucleic acid) rGrGrArGfCrGfCrAfCfUfCrArGfCfCrAfCrGrGfUrArAfCrAfUfUrGfUfUfUfCfCrGrGfCrGrAfUfUfCfUfUfUrGrArAfCrGfCfCrGfUfCrGfUrGrGfUfUfUfCrGrAfCfCfUfCfUfCfUrGfCfUrArGfC",
    "Screen- Human/No Protein": 1.03
  },
  {
    "molecule": "AMX198.C6: rRfY aptamer clone (nucleic acid) rGrGrArGfCrGfCrAfCfUfCrArGfCfCrAfCrGrGfUrGrGfUfCrArGfUfCrArGfUrGrAfUrAfUrGrAfUfUrArArGfUfUfCrArGfCfUrGfUrGrGfCfUrGfUfUfUfCrGrAfCfCfUfCfUfCfUrGfCfUrArGfC",
    "Screen- Human/No Protein": 3.03
  },
  {
    "molecule": "AMX201.G1: rRfY aptamer clone (nucleic acid) rGrGrArGfCrGfCrAfCfUfCrArGfCfCrAfCrGfCfUfCrGrGfUrGrGrGrGrArArAfUfUfUfUrArGfCfCfUrArAfUfUrGrGfCfUrAfCfUfUrGfUrGfCrGfUfUfUfCrGrAfCfCfUfCfUfCfUrGfCfUrArGfC",
    "Screen- Human/No Protein": 2.14
  },
  {
    "molecule": "AMX198.E5: rRfY aptamer clone (nucleic acid) rGrGrArGfCrGfCrAfCfUfCrArGfCfCrAfCfUfUfCrGrAfCfUfUfUfCrAfUrGfUfCfUrGrArArGfUfCfCfCfUrGfCrArGfUrGfCrGrArGrArGrAfCrGfUfUfUfCrGrAfCfCfUfCfUfCfUrGfCfUrArGfC",
    "Screen- Human/No Protein": 1.60
  },
  {
    "molecule": "AMX201.H1: rRfY aptamer clone (nucleic acid) rGrGrArGfCrGfCrAfCfUfCrArGfCfCrAfCfUfUfUrAfCrGrGfUrGrArArArGfUfCfUfCfUfCrGrGrGrGfUfUfCfCrGrArGfUfUrAfCrGrGfUrGfCrGfUfUfUfCrGrAfCfCfUfCfUfCfUrGfCfUrArGfC",
    "Screen- Human/No Protein": 2.61
  }
]
